Catalogue of compounds with associated residual activity
# assay system: UniProtKB O96017
# Sequence (O96017 whole entry, looked up): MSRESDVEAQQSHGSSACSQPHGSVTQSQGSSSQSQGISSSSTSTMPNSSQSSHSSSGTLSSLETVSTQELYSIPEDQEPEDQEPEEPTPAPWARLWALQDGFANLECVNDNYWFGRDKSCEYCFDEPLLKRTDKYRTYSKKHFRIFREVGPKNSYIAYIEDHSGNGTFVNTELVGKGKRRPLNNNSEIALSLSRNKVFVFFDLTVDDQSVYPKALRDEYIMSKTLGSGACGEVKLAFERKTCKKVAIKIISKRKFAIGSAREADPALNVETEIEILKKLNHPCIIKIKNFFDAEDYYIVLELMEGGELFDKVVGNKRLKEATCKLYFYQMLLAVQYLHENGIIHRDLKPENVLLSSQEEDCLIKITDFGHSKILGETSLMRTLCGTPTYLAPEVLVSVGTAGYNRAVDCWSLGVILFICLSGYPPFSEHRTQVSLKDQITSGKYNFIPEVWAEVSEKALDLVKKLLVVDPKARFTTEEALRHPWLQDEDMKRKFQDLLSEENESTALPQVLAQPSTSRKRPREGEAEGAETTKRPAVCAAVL
# procedure summary: radiometric filter-binding kinase assay
# assay setup: compound 1.0 µM; ATP 20 µM
Numeric only. Scale: %

Could you share which residual activity value was measured for "O=S(=O)(NCCNC/C=C/c1ccc(Br)cc1)c1cccc2cnccc12" ? 69

* * *

# assay system: CSNK2A1 or CSNK2A2 (human) (UniProt P19784+P68400)
# procedure summary: radiometric filter-binding kinase assay
# assay setup: compound 1.0 µM; ATP 5 µM
value kind: residual activity (%)
Numeric only. Scale: %

compound=O=C1c2ccccc2-c2n[nH]c3cccc1c23 value_kind="residual activity" readout_value=57

Could you share which residual activity value was measured for "COC[C@H]1OC(=O)c2coc3c2[C@@]1(C)C1=C(C3=O)[C@@H]2CCC(=O)[C@@]2(C)C[C@H]1OC(C)=O" ? 96

Could you share which residual activity value was measured for "CC[C@@H](CO)Nc1nc(NCc2ccccc2)c2ncn(C(C)C)c2n1" ? 92

Could you share which residual activity value was measured for "COc1ccc2c(c1)=NC1=C(C)NCCC=21" ? 87

Could you share which residual activity value was measured for CO[C@H]1CC2CC[C@@H](C)[C@@](O)(O2)C(=O)C(=O)N2CCCC[C@H]2C(=O)OC([C@H](C)C[C@@H]2CC[C@@H](O)[C@H](OC)C2)CC(=O)[C@H](C)/C=C(\C)[C@@H](O)[C@@H](OC)C(=O)[C@H](C)C[C@H](C)/C=C/C=C/C=C/1C (stereo not given in full) ? 92

* * *

# assay system: PRKCA (human)
# procedure summary: radiometric filter-binding kinase assay
# assay setup: compound 1.0 µM; ATP 20 µM
value kind: residual activity
Answer format reminder: number followed by unit.

Field: example entries. Status: answers known.
molecule=CC(C)(N)c1ccc(-c2nc3ccccc3nc2-c2ccccc2)cc1 assay_system="PRKCA (human)" readout_value=108%
molecule="CO[C@H]1CC2CC[C@@H](C)[C@@](O)(O2)C(=O)C(=O)N2CCCC[C@H]2C(=O)OC([C@H](C)C[C@@H]2CC[C@@H](O)[C@H](OC)C2)CC(=O)[C@H](C)/C=C(\\C)[C@@H](O)[C@@H](OC)C(=O)[C@H](C)C[C@H](C)/C=C/C=C/C=C/1C (stereo partly specified)" assay_system="PRKCA (human)" readout_value=88%
molecule=COc1ccc2c(c1)=NC1=C(C)NCCC=21 assay_system="PRKCA (human)" readout_value=90%
molecule=COC[C@H]1OC(=O)c2coc3c2[C@@]1(C)C1=C(C3=O)[C@@H]2CCC(=O)[C@@]2(C)C[C@H]1OC(C)=O assay_system="PRKCA (human)" readout_value=68%
molecule=O=C1c2ccccc2-c2n[nH]c3cccc1c23 assay_system="PRKCA (human)" readout_value=68%

Then there is this molecule:
Could you share which residual activity value was measured for "O=S(=O)(NCCNC/C=C/c1ccc(Br)cc1)c1cccc2cnccc12" ? 80%

* * *

# assay system: PDPK1 (human) (UniProt O15530)
# Sequence (O15530 whole entry, looked up): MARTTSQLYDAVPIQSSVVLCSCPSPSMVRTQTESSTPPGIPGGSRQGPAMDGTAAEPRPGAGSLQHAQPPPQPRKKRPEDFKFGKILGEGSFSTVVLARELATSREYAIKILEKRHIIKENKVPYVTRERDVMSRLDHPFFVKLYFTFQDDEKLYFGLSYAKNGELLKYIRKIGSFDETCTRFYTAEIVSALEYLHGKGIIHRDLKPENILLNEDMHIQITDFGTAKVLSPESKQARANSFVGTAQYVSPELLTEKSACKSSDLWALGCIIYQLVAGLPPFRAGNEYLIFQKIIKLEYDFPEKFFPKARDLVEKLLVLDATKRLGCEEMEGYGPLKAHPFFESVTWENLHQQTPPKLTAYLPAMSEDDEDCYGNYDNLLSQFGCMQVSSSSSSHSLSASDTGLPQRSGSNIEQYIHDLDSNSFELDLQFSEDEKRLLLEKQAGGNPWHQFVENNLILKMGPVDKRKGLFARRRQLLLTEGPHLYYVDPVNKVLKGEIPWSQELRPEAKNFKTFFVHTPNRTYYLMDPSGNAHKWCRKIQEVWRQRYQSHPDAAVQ
# procedure summary: radiometric filter-binding kinase assay
# assay setup: compound 1.0 µM; ATP 20 µM
So basically: residual activity at 90% or higher? That is Met. Lower than 90%? That is Not met.

Answered cases to consult:
compound=CC(C)(N)c1ccc(-c2nc3ccccc3nc2-c2ccccc2)cc1 cat=Met
compound="CO[C@H]1CC2CC[C@@H](C)[C@@](O)(O2)C(=O)C(=O)N2CCCC[C@H]2C(=O)OC([C@H](C)C[C@@H]2CC[C@@H](O)[C@H](OC)C2)CC(=O)[C@H](C)/C=C(\\C)[C@@H](O)[C@@H](OC)C(=O)[C@H](C)C[C@H](C)/C=C/C=C/C=C/1C (some centres not stated)" cat="Not met"

Check the entry "COc1ccc2c(c1)=NC1=C(C)NCCC=21" : does residual activity equal or exceed 90%? Not met

Check the entry "CC[C@@H](CO)Nc1nc(NCc2ccccc2)c2ncn(C(C)C)c2n1" : does residual activity equal or exceed 90%? Not met

Check the entry "O=C1c2ccccc2-c2n[nH]c3cccc1c23" : does residual activity equal or exceed 90%? Not met

* * *

# Test system: AKT1 (human), P31749 [S473D]
# Sequence (P31749 whole entry S473D, looked up): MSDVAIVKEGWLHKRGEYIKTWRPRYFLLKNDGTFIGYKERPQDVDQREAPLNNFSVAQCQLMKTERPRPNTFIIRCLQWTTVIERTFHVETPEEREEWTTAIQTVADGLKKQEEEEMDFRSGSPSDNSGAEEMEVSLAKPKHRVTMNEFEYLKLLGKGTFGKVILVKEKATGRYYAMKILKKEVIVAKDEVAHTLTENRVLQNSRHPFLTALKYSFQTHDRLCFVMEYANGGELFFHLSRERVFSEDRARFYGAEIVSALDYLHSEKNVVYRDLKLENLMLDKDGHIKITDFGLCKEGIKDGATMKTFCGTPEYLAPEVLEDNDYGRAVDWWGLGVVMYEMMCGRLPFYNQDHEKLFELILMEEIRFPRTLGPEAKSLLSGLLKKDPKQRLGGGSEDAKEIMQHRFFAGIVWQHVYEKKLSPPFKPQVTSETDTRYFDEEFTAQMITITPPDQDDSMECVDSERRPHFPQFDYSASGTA
# procedure summary: radiometric filter-binding kinase assay
# assay setup: compound 1.0 µM; ATP 5 µM
value kind: residual activity (%)
Numeric only. Scale: %

Field: example entries. Status: answers known.
molecule=COc1ccc2c(c1)=NC1=C(C)NCCC=21 assay_system="AKT1 (human), P31749 [S473D]" readout_value=95
molecule=O=C1c2ccccc2-c2n[nH]c3cccc1c23 assay_system="AKT1 (human), P31749 [S473D]" readout_value=97
molecule="CO[C@H]1CC2CC[C@@H](C)[C@@](O)(O2)C(=O)C(=O)N2CCCC[C@H]2C(=O)OC([C@H](C)C[C@@H]2CC[C@@H](O)[C@H](OC)C2)CC(=O)[C@H](C)/C=C(\\C)[C@@H](O)[C@@H](OC)C(=O)[C@H](C)C[C@H](C)/C=C/C=C/C=C/1C (stereo not given in full)" assay_system="AKT1 (human), P31749 [S473D]" readout_value=91
molecule=O=S(=O)(NCCNC/C=C/c1ccc(Br)cc1)c1cccc2cnccc12 assay_system="AKT1 (human), P31749 [S473D]" readout_value=14

Then there is this molecule:
Could you share which residual activity value was measured for "COC[C@H]1OC(=O)c2coc3c2[C@@]1(C)C1=C(C3=O)[C@@H]2CCC(=O)[C@@]2(C)C[C@H]1OC(C)=O" ? 97

* * *

# assay system: MAPK14 (human)
# procedure summary: radiometric filter-binding kinase assay
# assay setup: compound 1.0 µM; ATP 50 µM
Catalogue of molecules with associated residual activity
Numeric only. Scale: %

molecule=O=C1c2ccccc2-c2n[nH]c3cccc1c23 readout_value=110
molecule="CO[C@H]1CC2CC[C@@H](C)[C@@](O)(O2)C(=O)C(=O)N2CCCC[C@H]2C(=O)OC([C@H](C)C[C@@H]2CC[C@@H](O)[C@H](OC)C2)CC(=O)[C@H](C)/C=C(\\C)[C@@H](O)[C@@H](OC)C(=O)[C@H](C)C[C@H](C)/C=C/C=C/C=C/1C (stereo not given in full)" readout_value=75
molecule=COC[C@H]1OC(=O)c2coc3c2[C@@]1(C)C1=C(C3=O)[C@@H]2CCC(=O)[C@@]2(C)C[C@H]1OC(C)=O readout_value=117

Could you share which residual activity value was measured for "COc1ccc2c(c1)=NC1=C(C)NCCC=21" ? 88

Could you share which residual activity value was measured for "O=S(=O)(NCCNC/C=C/c1ccc(Br)cc1)c1cccc2cnccc12" ? 99

* * *

# assay system: CDK2 CCNA2 (human) (UniProt P24941+P20248)
# Sequence (P20248 whole entry, looked up, other chains not shown): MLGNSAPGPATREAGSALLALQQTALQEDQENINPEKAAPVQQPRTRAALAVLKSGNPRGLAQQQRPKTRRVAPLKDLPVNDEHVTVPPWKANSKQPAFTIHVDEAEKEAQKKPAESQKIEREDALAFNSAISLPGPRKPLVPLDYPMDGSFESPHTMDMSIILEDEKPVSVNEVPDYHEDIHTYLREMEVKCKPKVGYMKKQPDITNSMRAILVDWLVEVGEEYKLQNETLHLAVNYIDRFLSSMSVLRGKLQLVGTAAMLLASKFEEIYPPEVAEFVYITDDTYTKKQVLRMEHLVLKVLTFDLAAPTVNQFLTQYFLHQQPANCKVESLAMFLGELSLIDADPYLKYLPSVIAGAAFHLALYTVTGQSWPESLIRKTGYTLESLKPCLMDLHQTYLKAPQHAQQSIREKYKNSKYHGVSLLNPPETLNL
# procedure summary: radiometric filter-binding kinase assay
# assay setup: compound 1.0 µM; ATP 20 µM
value kind: residual activity (%)
Numeric only. Scale: %

Field: example entries. Status: answers known.
compound=O=S(=O)(NCCNC/C=C/c1ccc(Br)cc1)c1cccc2cnccc12 readout_value=75
compound=COC[C@H]1OC(=O)c2coc3c2[C@@]1(C)C1=C(C3=O)[C@@H]2CCC(=O)[C@@]2(C)C[C@H]1OC(C)=O readout_value=95

Could you share which residual activity value was measured for "O=C1c2ccccc2-c2n[nH]c3cccc1c23" ? 50

Could you share which residual activity value was measured for "CC(C)(N)c1ccc(-c2nc3ccccc3nc2-c2ccccc2)cc1" ? 97

Could you share which residual activity value was measured for CO[C@H]1CC2CC[C@@H](C)[C@@](O)(O2)C(=O)C(=O)N2CCCC[C@H]2C(=O)OC([C@H](C)C[C@@H]2CC[C@@H](O)[C@H](OC)C2)CC(=O)[C@H](C)/C=C(\C)[C@@H](O)[C@@H](OC)C(=O)[C@H](C)C[C@H](C)/C=C/C=C/C=C/1C (stereo not given in full) ? 92

* * *

# assay system: NEK2 (human) (UniProt P51955)
# Sequence (P51955 whole entry, looked up): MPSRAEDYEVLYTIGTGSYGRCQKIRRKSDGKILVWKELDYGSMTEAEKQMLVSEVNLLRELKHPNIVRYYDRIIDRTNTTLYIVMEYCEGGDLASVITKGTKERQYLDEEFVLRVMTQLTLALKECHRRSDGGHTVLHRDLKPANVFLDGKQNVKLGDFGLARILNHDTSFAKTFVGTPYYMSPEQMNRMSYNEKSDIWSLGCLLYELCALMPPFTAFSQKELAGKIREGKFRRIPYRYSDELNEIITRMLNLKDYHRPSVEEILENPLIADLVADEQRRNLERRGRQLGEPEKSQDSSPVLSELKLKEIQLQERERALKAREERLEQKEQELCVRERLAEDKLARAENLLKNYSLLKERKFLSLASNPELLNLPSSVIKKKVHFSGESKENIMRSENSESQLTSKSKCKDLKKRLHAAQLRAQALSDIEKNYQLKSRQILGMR
# procedure summary: radiometric filter-binding kinase assay
# assay setup: compound 1.0 µM; ATP 50 µM
Catalogue of compounds with associated residual activity
Numeric only. Scale: %

compound=COC[C@H]1OC(=O)c2coc3c2[C@@]1(C)C1=C(C3=O)[C@@H]2CCC(=O)[C@@]2(C)C[C@H]1OC(C)=O readout_value=81
compound=COc1ccc2c(c1)=NC1=C(C)NCCC=21 readout_value=96
compound="CO[C@H]1CC2CC[C@@H](C)[C@@](O)(O2)C(=O)C(=O)N2CCCC[C@H]2C(=O)OC([C@H](C)C[C@@H]2CC[C@@H](O)[C@H](OC)C2)CC(=O)[C@H](C)/C=C(\\C)[C@@H](O)[C@@H](OC)C(=O)[C@H](C)C[C@H](C)/C=C/C=C/C=C/1C (stereo partly specified)" readout_value=82
compound=O=S(=O)(NCCNC/C=C/c1ccc(Br)cc1)c1cccc2cnccc12 readout_value=102
compound=CC(C)(N)c1ccc(-c2nc3ccccc3nc2-c2ccccc2)cc1 readout_value=91

Then there is this compound:
Could you share which residual activity value was measured for "O=C1c2ccccc2-c2n[nH]c3cccc1c23" ? 78
